Source listed as patent US6770664B2.

// reported melting point per item

Task item: Would you kindly share the measured melting point for O=C1O[C@@H](CO)CN1c1ccc(N2Cc3cccnc3C2)c(F)c1 ?
Reply: 208 to 212 °C (dec.)

Task item: Field entry: CC(=O)NC[C@H]1CN(c2ccc(-n3cc4cccnc4c3)c(F)c2)C(=O)O1
Reply: 220 to 225 °C (dec.)

Task item: Field entry: O=C1O[C@@H](COc2cnccn2)CN1c1ccc(N2Cc3cccnc3C2)c(F)c1
Reply: 225 to 230 °C

Task item: Field entry: CC(=O)NC[C@H]1CN(c2ccc(N3Cc4ccccc4C3=O)c(F)c2)C(=O)O1
Reply: 211 to 214 °C
